Reference for the values: PubChem BioAssay (NCI)

- System: SW-620 colon
- method-description: NCI tumour cell line growth inhibition, 48 h
This listing pairs compounds with measured TGI.

{"columns": ["compound", "TGI"],
 "data": [
  ["CN(C)c1ccc(C(=C2C=CC(=[N+](C)C)C=C2)c2ccccc2Cl)cc1", "1.19 µM"],
  ["CN(C)CCNc1nc2ccccc2c2occc12", "> 100 µM"],
  ["CC(=O)NC1=C(Sc2ccc(Cl)cc2)C(=O)c2ccccc2C1=O", "4.01 µM"],
  ["CC/C(CC(=O)CCC(=O)Nc1ccc(C)c(C)c1)=N\\NC(=O)C(N)=O", "> 100 µM"],
  ["Cc1ccc(S(=O)(=O)SCc2ccccc2)cc1", "14.7 µM"],
  ["O=P1(Oc2ccccc2)NCc2ncccc2O1 (stereo unspecified)", "> 100 µM"],
  ["CC12CCC(O)CC1=CCC1C2CCC2(C)C(c3cccnc3)=CCC12 (stereo unspecified)", "> 100 µM"],
  ["NC(=O)C1N=NSC1NC(=O)c1ccc([N+](=O)[O-])cc1 (stereo unspecified)", "> 100 µM"],
  ["COc1ccc(/C(=N/O)c2cc(OC)c(OC)c(OC)c2)c(OC)c1N", "> 100 µM"],
  ["Cc1c(-c2ccc(O)c(O)c2)oc(=O)c2c(O)cccc12", "61.2 µM"],
  ["O=C1C2CC=CCC2C(=O)N1n1c(Cc2ccccc2)n[nH]c1=O (stereo unspecified)", "> 100 µM"]
]}

###

Recorded TGI for the following compounds
- Tested on: SR leukemia
- method-description: NCI tumour cell line growth inhibition, 48 h

{"columns": ["compound", "TGI"],
 "data": [
  ["N#CCCN(CCC#N)c1ccc(C(N=Nc2ccc(Cl)cc2)=Nc2ccc(Cl)cc2)cc1", "> 100 µM"],
  ["COC(=O)/C(=C\\c1c(-c2ccccc2)[nH]c2ccccc12)S(C)(=O)=O", "> 100 µM"],
  ["Oc1c2c(c(O)c3ccccc13)C1(N=N2)c2ccccc2Oc2ccccc21", "> 100 µM"],
  ["C[C@@](O)(/C=C/[C@H]1CC=CC(=O)O1)[C@@H](C[C@@H](O)\\C=C/C=C\\C=C\\CO)OP(=O)(O)O", "41.6 µM"],
  ["COc1cc2c(cc1O)C(c1cc(O)c(O)c(OC)c1)C(O)(C(=O)O)C(CO)C2O (stereo not given)", "> 100 µM"],
  ["CN(C)c1ccc(C(=C2C=CC(=[N+](C)C)C=C2)c2ccccc2Cl)cc1", "0.898 µM"],
  ["COc1ccc2nccc(/C=C/c3ccnc4ccc(OC)cc34)c2c1", "> 53.7 µM"],
  ["COc1ccc2c(c1)CCN1C3=C(CCC3)C(=O)C[C@@H]21", "> 100 µM"],
  ["CSc1nc(N)c2c(n1)NC(c1ccccc1)C1CCc3ccccc3C1=N2 (stereo not given)", "5.54 µM"],
  ["CC(=O)C1=C(C)N(c2ccccc2)C2(O)C=CC(=O)C3=C(O)c4ccccc4C(=O)C312 (stereo not given)", "> 100 µM"]
]}

###

- System: HCT-116 colon
- method-description: NCI tumour cell line growth inhibition, 48 h
outcome-measure: TGI (µM)

{"columns": ["molecule", "censor-symbol", "value"],
 "data": [
  ["Nc1c2c(nc3ccccc13)CCCc1ccccc1-2", "=", 19.1],
  ["COc1ccc2nccc(/C=C/c3ccnc4ccc(OC)cc34)c2c1", ">", 100],
  ["CN(C)CCNc1nc2ccccc2c2occc12", ">", 100],
  ["O[C@H]1[C@H](O)[C@@H](Cn2nnc(-c3ccccc3)c2-c2ccccc2)OCO[C@@H]1Cn1nnc(-c2ccccc2)c1-c1ccccc1", "=", 9.63],
  ["CC(C)[C@](O)(C(=O)OCC1=CCN2CC[C@@H](O)[C@@H]12)[C@H](C)O", ">", 375],
  ["CC/C=C\\C[C@H](O)C/C=C1/C(=O)C=C[C@@H]1C/C=C\\CCCC(=O)NC", "=", 2.04],
  ["NC(=O)C1N=NSC1NC(=O)c1ccc([N+](=O)[O-])cc1 (stereo not given)", ">", 100],
  ["Cc1nc2ccccc2n1Cc1nnc2n1N=C(c1ccccc1)CS2", ">", 100],
  ["COc1ccc2[nH]c(O)c(/C=c3/ccc4c(c3)N=C(c3ccc(F)cc3)N=4)c2c1", "=", 3.37],
  ["Cc1cn2c(/C=N/N=C(N)N)c(-c3ccsc3)nc2s1", "=", 12.6]
]}

###

- Tested on: OVCAR-3 ovarian
- method-description: NCI tumour cell line growth inhibition, 48 h

{"columns": ["compound", "units-symbol", "censor-symbol", "TGI"],
 "data": [
  ["NC(N)=NS(=O)(=O)c1ccc(NC(=O)c2ccc3nc4ccccc4c(N)c3c2)cc1", "µM", ">", 100],
  ["COc1cc2c(cc1O)C(c1cc(O)c(O)c(OC)c1)C(O)(C(=O)O)C(CO)C2O (stereo not given)", "µM", ">", 100],
  ["Cc1cc(NS(=O)(=O)c2ccc(Nc3c4ccccc4nc4c(C(=O)Nc5ccc(S(=O)(=O)N=C(N)N)cc5)ccc(Cl)c34)cc2)no1", "µM", "=", 63.2],
  ["O=c1c2c3c(sc2nc2n1N=C(c1ccc([N+](=O)[O-])cc1)CS2)CCCC3", "µM", ">", 100],
  ["COc1cc(C2C3=C(COC3=O)Nc3cc4c(cc32)OCO4)cc2c1OCO2 (stereo not given)", "µM", "=", 0.0695]
]}

###

Here, each record is paired with measured GI50 data.
- System: SN12C renal
- method-description: NCI tumour cell line growth inhibition, 48 h

{"columns": ["compound", "target-or-test-system", "GI50"],
 "data": [
  ["COc1ccc(C(=O)OC2C(OC3C(O)COC(O[C@H]4C[C@H]5[C@@H]6CC=C7C[C@@H](O)CC[C@]7(C)[C@H]6CC[C@]5(C)[C@H]4[C@H](C)C(=O)CCC(C)C)C3OC(C)=O)OCC(O)C2O)cc1 (some centres undefined)", "SN12C renal", "1.11 µM"],
  ["CC1(C)CC(=O)c2c(ccc(C(=O)C[C@@H](N)CO)c2N)O1", "SN12C renal", "0.788 µM"],
  ["Clc1ccc(N2CCC(N3CCCC3)CC2)cc1-c1nc2ccccc2[nH]1", "SN12C renal", "25 µM"],
  ["C[C@]12CCc3sc(-c4cccc(F)c4)nc3C1=CC[C@@H]1[C@@H]2CC[C@]2(C)C(=O)CC[C@@H]12", "SN12C renal", "3.01 µM"],
  ["Cc1ncc(-c2ccnc(Nc3ccc(S(C)(=O)=O)cc3)n2)n1C(C)C", "SN12C renal", "1.34 µM"],
  ["CCN(Cc1cccc(F)c1F)c1ccc(CO)c(Cl)c1", "SN12C renal", "13.4 µM"],
  ["CN(C)CCNc1nc2ccccc2c2occc12", "SN12C renal", "27.7 µM"],
  ["CN(C)c1ccc(/C=N/NC(=O)c2cccc3ccccc23)c(Cl)c1", "SN12C renal", "8.85 µM"],
  ["CN1CCN(c2ccc(C(=O)Nc3cccc(C#Cc4cccc5[nH]nc(N)c45)c3)cc2C(F)(F)F)CC1", "SN12C renal", "1.2 µM"]
]}

###

- Tested on: ACHN renal
- method-description: NCI tumour cell line growth inhibition, 48 h
Please note: fulfilled applies when TGI is 10 µM or greater, and not fulfilled applies otherwise.

{"columns": ["compound", "answer-label"],
 "data": [
  ["C[C@@](O)(/C=C/[C@H]1CC=CC(=O)O1)[C@@H](C[C@@H](O)\\C=C/C=C\\C=C\\CO)OP(=O)(O)O", "fulfilled"],
  ["CCCCCSC1C2C(=O)C(Br)=CC13CCNc1c(O)c4c5c(c13)=[N+]2CCC=5C=N4 (stereo not given)", "not fulfilled"],
  ["Cc1cc2c(=O)[nH]c(N)nc2nc1C", "fulfilled"],
  ["O=S(=O)(NCCO)c1cc[c]([Sb](=[O])([OH])[OH])cc1", "fulfilled"],
  ["Oc1c(CNCCNCc2cc(Cl)cc(Cc3ccccc3)c2O)cc(Cl)cc1Cc1ccccc1", "fulfilled"],
  ["O=[p+]1c2ccccc2[nH]c2ccccc21", "fulfilled"],
  ["COc1cc(NC(C)CCCN)c2ncccc2c1Sc1ccc(Cl)cc1 (stereo not given)", "not fulfilled"],
  ["COc1ccc(C#CC2=C(c3cc(OC)c(OC)c(OC)c3)C(=O)OC2)cc1", "fulfilled"],
  ["CCCCN1C(=O)CS/C1=N/Nc1nc2c([nH]1)c(=O)n(C)c(=O)n2C", "fulfilled"],
  ["Cc1nc2ccccc2n1Cc1nnc2n1N=C(c1ccccc1)CS2", "fulfilled"]
]}

###

- Test system: HCT-116 colon
- method-description: NCI tumour cell line growth inhibition, 48 h; in the data active means GI50 below about 0.43 µM; inactive means the rest
Outcomes: T for active, F for inactive

{"columns": ["molecule", "answer-label"],
 "data": [
  ["Cc1cn2c(/C=N/N=C(N)N)c(-c3ccsc3)nc2s1", "F"],
  ["Oc1c(CNCCNCc2cc(Cl)cc(Cc3ccccc3)c2O)cc(Cl)cc1Cc1ccccc1", "T"],
  ["COc1ccc2[nH]c(O)c(/C=c3/ccc4c(c3)N=C(c3ccc(F)cc3)N=4)c2c1", "F"],
  ["N=C(N)SCc1ccc([N+](=O)[O-])cc1[N+](=O)[O-]", "F"],
  ["CN(C)c1ccc(C(=C2C=CC(=[N+](C)C)C=C2)c2ccccc2Cl)cc1", "T"],
  ["FC(F)(F)c1[nH]ncc1-c1nc2ccc3[nH]ncc3c2c2c1CCCC2", "F"],
  ["Oc1ccccc1C=Nc1ccccc1N=Cc1ccccc1O.[Cu+2]", "F"],
  ["CC(=O)/C(=C\\c1c(-c2ccccc2)[nH]c2ccccc12)S(=O)(=O)c1ccccc1", "F"],
  ["COC(=O)[C@@H](OC)[C@@H]1Cc2cc3cc(OC4CC(OC5CC(O)C(O)C(C)O5)C(O)C(C)O4)c(C)c(O)c3c(O)c2C(=O)[C@H]1OC1CC(OC2CC(OC3CC(C)(O)C(O)C(C)O3)C(O)C(C)O2)C(O)C(C)O1 (some centres undefined)", "T"]
]}
